- test_details: Induction of heme alkylation of Fe(II) heme assessed as adduct A472 absorbance change at completion of reaction at 10 uM in presence of 50% ACN-H2O with excess sodium dithionite under argon at 20 degC by spectrophotometry
Decide using deltaA: a value greater than or equal to 0.8 is TRUE, a smaller one is FALSE.

mol: O=S(=O)(O)OC[C@H]1CC[C@]2(CC1)OO[C@]1(O2)C2CC3CC(C2)CC1C3
assigned_label: TRUE
//
mol: C[C@@H]1CC[C@H]2[C@@H](C)C(=O)O[C@@H]3O[C@@]4(C)CC[C@@H]1[C@]32OO4
assigned_label: FALSE
//
mol: CC1(C)CC[C@]2(CC1)OO[C@]1(O2)C2CC3CC(C2)CC1C3
assigned_label: FALSE
//
mol: Clc1ccc([C@H]2CC[C@]3(CC2)OO[C@]2(O3)C3CC4CC(C3)CC2C4)cc1
assigned_label: TRUE
//
mol: C[C@H]1[C@@H](O)O[C@@H]2O[C@@]3(C)CC[C@H]4[C@H](C)CC[C@@H]1[C@@]24OO3
assigned_label: FALSE
//
mol: O=C1C2CC3CC1CC(C2)[C@]31OO[C@@]2(CCCCC2)O1
assigned_label: FALSE
